# ASSAY_SUMMARY: Pharmacokinetics and bioavailability, single intravenous or oral doses, partial Latin square crossover
# Assay type: in vivo, male cynomolgus monkeys
# RUN_PARAMETERS: male, cynomolgus monkey, plasma; intravenous; title 5 mg/kg, text 2 mg/kg; n=6
Structures can show the parent of a compound that is named as a salt.
OBSERVED_PROPERTY: AUC(0-t) (µM·h)
Numbers only, in µM·h.

{"columns": ["MOLECULE", "UNIT_TEXT", "AUC(0-t)"],
 "data": [
  ["CC(C)[C@H](N)C(=O)O[C@@H](C)[C@H](O)[C@H]1CNc2nc(N)[nH]c(=O)c2N1 [Example 5, dihydrochloride]", "µM·h", 4.17]
]}

Now let's try a different one.
Entry C[C@H](O)[C@H](O)[C@H]1CNc2nc(N)[nH]c(=O)c2N1 [BH4, Tetrahydrobiopterin, reference compound] : reported AUC(0-t) = ?
6.76
